experiment: TLR3 IRF3 reporter activation blockers – cell-based, poly I:C stimulus, luciferase, 10K MLSCN set, primary screen (AID 602277); conditions: HEK293-TLR3 RL24 IRF3 luciferase reporter, at 10 µM, stronger effect = higher value
Assign label 1 to entries whose inhibition meets or exceeds 20%; assign label 0 to the rest.

Would you say "Cc1ccc(-c2cc(C(F)F)nc(N3CCC(C)CC3)n2)cc1" shows inhibition at minimum 20%?
label 0

Would you say O=C(NCC(=O)N(c1cccnc1)C(C(=O)NC1CCCCC1)c1cccnc1)c1ccco1 (stereo not given) shows inhibition at minimum 20%?
label 0

Would you say "Cc1ccc2[nH]c3c(=O)n(CCCN4CCN(C)CC4)cnc3c2c1" shows inhibition at minimum 20%?
label 1

Would you say Cc1[nH]c(=O)[nH]c(=O)c1S(=O)(=O)N1CCCC(C(=O)NCc2ccco2)C1 (stereo not given) shows inhibition at minimum 20%?
label 1

Would you say "Cc1ccc(C(=O)Nc2c(C(=O)N3CCOCC3)cnn2-c2ccccc2)cc1" shows inhibition at minimum 20%?
label 0

Would you say O=C(O)CCC1(C(=O)O)OCCc2ccccc21 (stereo not given) shows inhibition at minimum 20%?
label 0

Would you say "CC1(C)NC(=O)N(CNc2cc(Cl)ccc2Cl)C1=O" shows inhibition at minimum 20%?
label 1

Would you say "Cc1c(C)n(C(=O)CN2CCN(c3ccccn3)CC2)c2ccccc12" shows inhibition at minimum 20%?
label 0

Would you say Cc1ccc(NC(=O)CC2Nc3ccccc3NC2=O)cc1Cl (stereo not given) shows inhibition at minimum 20%?
label 0

Would you say "CCOC(=O)Cc1csc(NC(=O)CSc2nnc(C3CC3)n2C)n1" shows inhibition at minimum 20%?
label 0

Would you say "Cn1c(CN2CCCCC2)nc2cc(NC(=O)c3ccccc3)ccc21" shows inhibition at minimum 20%?
label 1

Would you say CCOc1ccccc1C(=O)NCC(=O)OCC(=O)N1C(C)CCCC1C (stereo not given) shows inhibition at minimum 20%?
label 0

Would you say "CSc1ccc(-c2cc(=O)c3ccccc3o2)cc1" shows inhibition at minimum 20%?
label 0

Would you say "CCOc1ccc2[nH]c(O)c(NC(C)=O)c2c1" shows inhibition at minimum 20%?
label 0

Would you say "CCc1nnc(NC(=O)CSc2nc(-c3ccc(OC)cc3)ns2)s1" shows inhibition at minimum 20%?
label 0

Would you say "CCOC(=O)c1sc(NC(=O)COC(=O)Cn2cnc3ccccc32)c(C(=O)OCC)c1C" shows inhibition at minimum 20%?
label 0

Would you say "CCOC(=O)Cn1ncc(-c2ccccc2)c1N" shows inhibition at minimum 20%?
label 0

Would you say "CCOC(OCC)P(=O)(C(C)C)C(C)C" shows inhibition at minimum 20%?
label 0

Would you say "Cc1cc(C)n(C(C)n2nc(C)cc2C)n1" shows inhibition at minimum 20%?
label 0

Would you say "COc1ccccc1N1CCN(C/C(O)=C(\C#N)c2nc(-c3ccccc3)cs2)CC1" shows inhibition at minimum 20%?
label 0

Would you say "Cc1ccc(C)c2[nH]c(=O)c(CCNC(=O)c3ccc(S(=O)(=O)N(C)C)cc3)cc12" shows inhibition at minimum 20%?
label 1

Would you say COC(=O)C(C)C1Sc2ccccc2NC1=O (stereo not given) shows inhibition at minimum 20%?
label 0

Would you say "Cn1c(=O)c2c(nc(N3CCN(c4ccccc4)CC3)n2CCCc2ccccc2)n(C)c1=O" shows inhibition at minimum 20%?
label 0

Would you say "CCOC(=O)c1nnc2cc(-c3ccc(Br)cc3)nn2c1C" shows inhibition at minimum 20%?
label 0

Would you say "O=C(C1CCN(S(=O)(=O)c2cccnc2)CC1)N1CCN(c2ccc(Cl)cc2)CC1" shows inhibition at minimum 20%?
label 0

Would you say "Cc1nc(NC2=NCN(CCN3CCOCC3)CN2)nc2c(C)cccc12" shows inhibition at minimum 20%?
label 1

Would you say O=C(NCc1cccs1)C(Cc1ccccc1)NS(=O)(=O)c1cccs1 (stereo not given) shows inhibition at minimum 20%?
label 0

Would you say Cc1ccc(/C(O)=C2\C(=O)C(=O)N(CCCN(C)C)C2c2ccccn2)cc1 (stereo not given) shows inhibition at minimum 20%?
label 0

Would you say "COc1ccccc1N1CCN(Cc2nnnn2CCc2ccccc2)CC1" shows inhibition at minimum 20%?
label 0

Would you say "CCn1nnnc1SCC(=O)N1c2ccccc2CCc2ccccc21" shows inhibition at minimum 20%?
label 0

Would you say CCOc1cc(C2NC(=O)N(C)C(C)=C2C(=O)OC)cc(Br)c1O (stereo not given) shows inhibition at minimum 20%?
label 0

Would you say C=CCc1ccccc1OCC(O)CN1CCN(Cc2ccc3c(c2)OCO3)CC1 (stereo not given) shows inhibition at minimum 20%?
label 0

Would you say COc1ccc(C2CC(c3ccc(Cl)cc3)Nc3nc(NC(=O)c4ccco4)nn32)cc1 (stereo not given) shows inhibition at minimum 20%?
label 1

Would you say "Cc1cc(C(=O)CSc2nnc(-c3ccccc3)n2C)c(C)n1C" shows inhibition at minimum 20%?
label 1

Would you say "O=C(CN1CCC(n2nnc3ccccc32)CC1)Nc1ccc2c(c1)CCC2" shows inhibition at minimum 20%?
label 0

Would you say "Cc1cc(NC(=O)CSc2nc(C3CCCCC3)nc3ccccc23)no1" shows inhibition at minimum 20%?
label 0

Would you say "COc1ccc(S(=O)(=O)Nc2ccc(S(=O)(=O)N3CCCCC3)cc2)cc1OC" shows inhibition at minimum 20%?
label 1

Would you say "COc1ccc(-c2c3c(=O)n(C)c(=O)n(C)c3cn2-c2cccc(OC)c2)cc1" shows inhibition at minimum 20%?
label 0

Would you say "COc1ccc(-n2c(COc3cccc(C)c3)nnc2SCC(=O)NCc2ccco2)cc1" shows inhibition at minimum 20%?
label 0

Would you say "COC(=O)Cc1cc(=O)n(-c2ccccc2)[nH]1" shows inhibition at minimum 20%?
label 1

Would you say CCCOc1ccc(/C(O)=C2/C(=O)C(=O)N(CCCOC)C2c2ccncc2)cc1 (stereo not given) shows inhibition at minimum 20%?
label 0

Would you say "Cc1ccc(CS(=O)(=O)Cc2ccc(C(=O)NCc3ccccn3)o2)cc1" shows inhibition at minimum 20%?
label 0

Would you say "Cn1nnnc1SCC(=O)N1CCN(c2ccccc2)CC1" shows inhibition at minimum 20%?
label 1

Entry source: PubChem BioAssay
